# tgt: T1, human CD16A-Fc^48R/158V fusion protein (human, UniProt P08637 17-208, limits assumed)
# T1 construct: Secreted soluble fusion made in HEK-293 cells; also called CD16-Fc; CD16A Fc-fusion protein; not shown: Fc portion of human IgG1
# run description: SPR, BIAcore 2000, CD16A-Fc immobilized on CM5, koff/kon
Item-by-item account of Kd
The response must be a number in nM with no trailing unit.

binder: affinity matured anti-CD16A scFv 3-LB5 (scFv, IMAC-purified from pSKK2; oligomeric state not analysed) scFv: EVQLVQSGAEVKKPGESLKVSCKASGYTFTSYYMHWVRQAPGQGLEWMGIINPSGGSTSYAQKFQGRVTMTRDTSTSTVYMELSSLRSEDTAVYYCARGSAYYYDFADYWGQGTLVTVSSGSASAPTLKLEEGEFSEARVSYELTQPPSVAVAPGKTARITCGGNNIGSKNVHWYQQKPGQAPVLVIYRDSNRPSGIPERFSGSNSGNTATLTISRAQAGDEADFYCQVWDNYIVLFGGGTKLTVLGQPKAAPSVTLFPPSAAAGSEQKLISEEDLNSHHHHHH
uom: nM
Kd: 40.5
//
binder: affinity matured anti-CD16A scFv 3-LB6 (scFv, IMAC-purified from pSKK2) scFv: EVQLVQSGAEVKKPGESLKVSCKASGYTFTSYYMHWVRQAPGQGLEWMGIINPSGGSTSYAQKFQGRVTMTRDTSTSTVYMELSSLRSEDTAVYYCARGSAYYYDFADYWGQGTLVTVSSGSASAPTLKLEEGEFSEARVQAVLTQPPSVSVAPGQTARIPCEGNNIGSKNVHWYRQKPGQVPVLVMYDDSDRPSGIPERFSGSNSGNTATLTISGTQAMDEADYYCQVWDNYSVLFGGGTKLTVLGQPKAAPSVTLFPPSAAAGSEQKLISEEDLNSHHHHHH
uom: nM
Kd: 119

--- query ---
For affinity matured anti-CD16A scFv 3-LB3 (scFv, IMAC-purified from pSKK2) scFv: EVQLVQSGAEVKKPGESLKVSCKASGYTFTSYYMHWVRQAPGQGLEWMGIINPSGGSTSYAQKFQGRVTMTRDTSTSTVYMELSSLRSEDTAVYYCARGSAYYYDFADYWGQGTLVTVSSGSASAPTLKLEEGEFSEARVSYELTQPLSESVAQGQTARITCGGNNIESRNVHWYQQKPGQAPVLVIYRDNNRPSGIPERFSGSNSGNMATLTISRAQAGDAADYYCQVWDNYTVLFGGGTKLTVLGQPKAAPSVTLFPPSAAAGSEQKLISEEDLNSHHHHHH the binder record lists Kd as 138
